# target: SIRT1 (Homo sapiens, UniProt Q96EB6)
# Sequence (Q96EB6 whole entry): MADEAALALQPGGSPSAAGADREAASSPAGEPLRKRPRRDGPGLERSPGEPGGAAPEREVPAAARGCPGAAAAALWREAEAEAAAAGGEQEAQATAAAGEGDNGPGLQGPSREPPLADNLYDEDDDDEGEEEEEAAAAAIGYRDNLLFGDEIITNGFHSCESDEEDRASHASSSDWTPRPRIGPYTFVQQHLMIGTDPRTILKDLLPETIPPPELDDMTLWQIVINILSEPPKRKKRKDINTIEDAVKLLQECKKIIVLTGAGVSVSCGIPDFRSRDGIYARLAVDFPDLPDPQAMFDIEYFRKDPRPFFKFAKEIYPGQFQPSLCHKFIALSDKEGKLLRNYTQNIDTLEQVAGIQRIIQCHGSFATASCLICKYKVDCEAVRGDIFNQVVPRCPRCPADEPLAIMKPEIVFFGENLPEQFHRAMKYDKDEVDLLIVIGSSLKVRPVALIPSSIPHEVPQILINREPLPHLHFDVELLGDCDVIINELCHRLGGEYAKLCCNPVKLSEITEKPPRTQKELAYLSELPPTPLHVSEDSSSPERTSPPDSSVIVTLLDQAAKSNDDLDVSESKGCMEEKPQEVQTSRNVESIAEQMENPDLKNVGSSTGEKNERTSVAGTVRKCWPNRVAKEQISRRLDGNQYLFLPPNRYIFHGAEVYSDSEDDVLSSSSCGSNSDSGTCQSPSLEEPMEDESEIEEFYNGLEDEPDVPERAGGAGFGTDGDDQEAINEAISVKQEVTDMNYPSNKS
# test.description: TAMRA based mass spectrometry assay of SIRT1 activity
# Format: biochemical
# condition: concentration of test compound giving 150% activation of SIRT1; TAMRA peptide substrate
reported.metric: TAMRA EC1.5 (μM)

Cc1nc2ccc(-c3ccccc3C(F)(F)F)nn2c1C(=O)Nc1cccc(N2CCC2)n1 A (EC1.5<1 μM)
Cn1cnc(C(=O)Nc2cnc3ccc(-c4ccccc4C(F)(F)F)nn23)c1 B (EC1.5 1-25 μM)
O=C(Nc1ccccn1)c1cnc2ccc(-c3ccccc3F)nn12 B (EC1.5 1-25 μM)
O=C(Nc1nccs1)c1cnc2ccc(-c3cccc(OC(F)(F)F)c3)nn12 B (EC1.5 1-25 μM)
O=C(Nc1cccc(CN2CCOCC2)n1)c1cnc2ccc(-c3cccc(Cl)c3)nn12 A (EC1.5<1 μM)
O=C(Nc1ccccn1)c1cnc2ccc(-c3ccccc3C(F)F)nn12 B (EC1.5 1-25 μM)

Record O=C(Nc1cccc(N2CCOCC2)n1)c1cnc2ccc(-c3ccccc3F)nn12 / SIRT1 (Homo sapiens, UniProt Q96EB6), TAMRA EC1.5 (μM) recorded as A (EC1.5<1 μM)

Record O=C(Nc1ccnc(N2CCOCC2)c1)c1cnc2ccc(-c3ccccc3C(F)F)nn12 / SIRT1 (Homo sapiens, UniProt Q96EB6), TAMRA EC1.5 (μM) recorded as A (EC1.5<1 μM)

Record O=C(Nc1nccs1)c1cnc2ccc(-c3ccccc3OC(F)(F)F)nn12 / SIRT1 (Homo sapiens, UniProt Q96EB6), TAMRA EC1.5 (μM) recorded as A (EC1.5<1 μM)

Record O=C(Nc1cccc(N2CCOCC2)n1)c1cnc2ccc(-c3ccc(F)c(F)c3F)nn12 / SIRT1 (Homo sapiens, UniProt Q96EB6), TAMRA EC1.5 (μM) recorded as A (EC1.5<1 μM)

Record O=C(Nc1cccc(CN2CCOCC2)n1)c1cnc2ccc(-c3ccccc3Cl)nn12 / SIRT1 (Homo sapiens, UniProt Q96EB6), TAMRA EC1.5 (μM) recorded as A (EC1.5<1 μM)
